# experimental system: Fuc(a1-2)Gal(b1-4)[Fuc(a1-3)]GlcNAc(b1-3)GalNAc
# method summary: glycan array binding signal (z-score within array); higher = stronger binding
# test context: glycan notation: IUPAC condensed, linker removed
This excerpt belongs to a sample that is enriched for the strongest signals.
The following binders are listed with their measured glycan array binding signal (z-score) values.

For orientation, consider the following solved cases.
binder | glycan array binding signal (z-score)
Epa7 (Candida glabrata), Q6DTM6_CANGB (protein) MGSSHHHHHHSSGLVPRGSHMKDDYSSFLSNNNLGWTDPTEFPLGCSPNVTTPKNGLSMELYSYDLRKNGSYPCWDAAYLDPNYPRTGYKSHRLLAKVDGVTGNINFYYHATKGCTPEIDHLPASYNYPKPLTMTNFTMLLYGYFKPKVTGYHTFTISADDLLFVNFGAGNAFDCCKRESSADDFGNYQAYAVWGSQTAKDDLTVHLDAGLYYPIRIFFNNREYDAELSLTLKTESDSNPVIDFSDYFYSFDDTKDGCPGLVSYDTS | -0.027
3FTT (Staphylococcus aureus), Q5HCZ5 (protein) MTEKEKMLAEKWYDANFDQYLINERARAKDICFELNHTRPSATNKRKELIDQLFQTTTDNVSISIPFDTDYGWNVKLGKNVYVNTNCYFMDGGQITIGDNVFIGPNCGFYTATHPLNFHHRNEGFEKAGPIHIGSNTWFGGHVAVLPGVTIGEGSVIGAGSVVTKDIPPHSLAVGNPCKVVRKIDNDLPSETLNDETIK | 1.26
Epa13 (Candida glabrata) (protein) MGSSHHHHHHSSGLVPRGSHMASDSSENGYAHGCSPSIRAKLKPGLSMEIYSYALRPTDDHCWDSAYLDPMFPRTGYLTHKLLGKAEGIIGPLNFLAKNPACIPAVSTLPLAFHFPKPFTITNFTMLLYGYLSPKKTGKYTFKLLADDLLLMNFGADNAFDCCSHDATKDNIGEYVAYSVWPGVNKNVTVYLESGIYYPLRLFFNNRDAIAQLDFAYYFNDSPIRQTDFSGMFFSIPDSVKCPANI | 2.14

[Q] So what's the measured glycan array binding signal (z-score) for this one? Pbx1CASH domain (Cryptococcus neoformans) (protein) MDETKPLWGNPRADGISLACKDSIVERNVVYDATDGAIVLFGSAGSTVKNNHVYARTRVILGGINLVDYEPWDGDYTNVKVHHNHLYALGRYFKVGIVIGPASWSDDTESVVHSASVTDNEFSGGYWGYGIVVASAKNFEVLRNKVIWDGEQGVARFSGVPGS
[A] 2.39
